# Measured target: porcine gastric H^+/K^+-ATPase (Sus scrofa)
# Construct: prepared from mucous membrane in fresh porcine stomachs by homogenization
# Sequence (P19156 2-1034 limits assumed): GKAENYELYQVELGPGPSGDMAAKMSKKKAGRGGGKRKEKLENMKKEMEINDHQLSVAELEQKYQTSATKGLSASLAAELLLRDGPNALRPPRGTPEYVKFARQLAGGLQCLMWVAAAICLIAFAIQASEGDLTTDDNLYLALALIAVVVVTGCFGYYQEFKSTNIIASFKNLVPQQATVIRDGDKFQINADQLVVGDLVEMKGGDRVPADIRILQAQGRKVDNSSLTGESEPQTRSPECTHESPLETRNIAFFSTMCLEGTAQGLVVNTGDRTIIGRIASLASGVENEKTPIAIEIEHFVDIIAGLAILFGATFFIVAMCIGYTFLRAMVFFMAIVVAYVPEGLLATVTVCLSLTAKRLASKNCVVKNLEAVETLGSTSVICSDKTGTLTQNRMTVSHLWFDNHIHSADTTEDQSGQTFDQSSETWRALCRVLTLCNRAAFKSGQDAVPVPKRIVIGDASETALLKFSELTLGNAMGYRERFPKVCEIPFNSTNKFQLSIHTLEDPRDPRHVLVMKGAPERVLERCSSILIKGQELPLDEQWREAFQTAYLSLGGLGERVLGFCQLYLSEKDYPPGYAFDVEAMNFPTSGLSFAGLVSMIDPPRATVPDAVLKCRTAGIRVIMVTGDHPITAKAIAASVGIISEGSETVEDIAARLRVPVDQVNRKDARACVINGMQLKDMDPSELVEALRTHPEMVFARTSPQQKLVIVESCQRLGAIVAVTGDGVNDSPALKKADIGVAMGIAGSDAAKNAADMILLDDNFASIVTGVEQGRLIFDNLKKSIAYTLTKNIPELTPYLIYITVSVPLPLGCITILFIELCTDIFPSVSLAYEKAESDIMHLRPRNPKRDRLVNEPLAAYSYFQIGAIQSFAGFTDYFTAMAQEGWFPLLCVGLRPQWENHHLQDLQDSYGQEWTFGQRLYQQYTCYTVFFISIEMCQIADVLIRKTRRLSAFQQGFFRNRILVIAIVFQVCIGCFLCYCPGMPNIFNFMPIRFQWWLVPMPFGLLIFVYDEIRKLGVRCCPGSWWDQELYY
# Sequence (P18434 whole entry partner): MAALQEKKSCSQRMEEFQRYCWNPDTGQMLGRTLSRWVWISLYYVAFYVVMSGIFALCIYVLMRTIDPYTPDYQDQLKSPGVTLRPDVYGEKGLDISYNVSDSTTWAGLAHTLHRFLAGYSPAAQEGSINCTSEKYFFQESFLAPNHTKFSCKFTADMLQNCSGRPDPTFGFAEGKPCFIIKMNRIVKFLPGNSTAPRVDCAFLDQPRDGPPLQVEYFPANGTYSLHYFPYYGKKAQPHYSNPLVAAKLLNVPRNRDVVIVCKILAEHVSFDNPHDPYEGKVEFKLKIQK
# Method summary: Ion-tight porcine gastric H+/K+-ATPase inhibition
# Study conditions: ion-tight porcine gastric vesicles, 150 mM KCl, valinomycin, pH 7.4, 37° C., 30 minutes
pIC50: −log10 of the molar value.
Reported property: pIC50

Some molecules with known pIC50 results, for comparison:
CCc1nc2c(OC3CCOc4cc(F)cc(F)c43)cc(C(=O)N(C)C)cc2[nH]1 (stereo not shown) ... 6.68
Cc1nc2c(O[C@@H]3CCOc4cc(F)cc(F)c43)cc(C(=O)N(C)C)cc2[nH]1 (single isomer, unassigned) ... 7.01

I = Cc1nc2c(OC3CCOc4cccc(F)c43)cc(C(=O)N(C)C)cc2[nH]1 (single isomer, unassigned; (-)) [Example 10]
II = Cc1nc2c(OC3CCOc4cc(F)cc(F)c43)cc(C(=O)N3CCCC3)cc2[nH]1 (single isomer, unassigned; (-)) [Example 6]
III = Cc1nc2c(OC3CCOc4cc(F)cc(F)c43)cc(C(=O)N(C)CCN(C)C)cc2[nH]1 (stereo not shown)
Order the records by pIC50, with each subsequent value no larger than the one before. Record the ranking as a list of labels in the requested order.
II, I, III
(II: 7.52, I: 6.85, III: 6.21)

1 = Cc1nc2c(OC3CCOc4c(F)ccc(C)c43)cc(C(=O)N(C)C)cc2[nH]1 (stereo not shown)
2 = Cc1nc2c(OC3CCOc4c(F)ccc(F)c43)cc(C(=O)N(C)C)cc2[nH]1 (stereo not shown)
Which gives the smaller pIC50 number: 1 or 2 ? Indicate which entry you chose by stating its label.
2
